Values compiled from patent US20160297884A1.

# SYSTEM_NAME: T1, Human BCMA (human, UniProt Q02223 1-54, limits assumed)
# T1 construct: also called huBCMA; B-cell maturation antigen
# T1 sequence (looked up): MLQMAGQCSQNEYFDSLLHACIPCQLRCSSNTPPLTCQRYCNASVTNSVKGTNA
# ASSAY_NAME: SPR, IgG immobilised, human BCMA analyte
# Description: All experiments were performed on a Bio-Rad Proteon XPR36 surface Plasmon resonance biosensor (Bio-Rad, Hercules, Calif.). […] The analysis temperature for the immobilization was 25° C. and the running buffer was HBS-T+(10 mM HEPES, 150 mM NaCl, 0.05% Tween-20, pH 7.4). […] The analysis temperature for the BCMA binding analysis was 37° C. or 25° C. in a running buffer of HBS-T+, supplemented with 1 mg/mL BSA. […] Immediately after the 50 nM BCMA injection, dissociation was monitored for 2 hours. […]
The entries below are paired with their reported kon.
Could you kindly put the unit after your number?

# example entries with known answers
C01_Rd4_6nM_C12 (antibody, V domains shown, IgG; also called PC1C12) VH: EVQLLESGGGLVQPGGSLRLSCAASGFTFSSYPMSWVRQAPGKGLEWVSAIGGSGGWSYYADSVKGRFTISRDNSKNTLYLQMNSLRAEDTAVYYCARYWPMDSWGQGTLVTVSS VL: EIVLTQSPGTLSLSPGERATLSCWLSQSVSSTYLAWYQQKPGQAPRLLIYDASSRAPGIPDRFSGSGSGTDFTLTISRLEPEDFAVYYCQQYSEWPLTFGQGTKVEIK | 1.21e+07 M⁻¹ s⁻¹
A02_Rd4_0.6nM_C13 (antibody, V domains shown, IgG) VH: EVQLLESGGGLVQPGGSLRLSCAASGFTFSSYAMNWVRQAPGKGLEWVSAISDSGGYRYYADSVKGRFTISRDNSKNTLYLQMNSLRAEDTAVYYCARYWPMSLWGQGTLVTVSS VL: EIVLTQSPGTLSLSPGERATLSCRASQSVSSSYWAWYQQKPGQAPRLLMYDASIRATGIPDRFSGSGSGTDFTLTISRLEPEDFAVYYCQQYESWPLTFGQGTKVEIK | 8.53e+06 M⁻¹ s⁻¹

In the following, a different binder is considered.
Reported kon of A02_Rd4_6nM_C22 (antibody, V domains shown, IgG) VH: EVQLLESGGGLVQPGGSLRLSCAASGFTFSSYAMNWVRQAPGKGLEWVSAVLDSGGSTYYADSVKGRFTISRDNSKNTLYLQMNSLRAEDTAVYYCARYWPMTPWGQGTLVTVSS VL: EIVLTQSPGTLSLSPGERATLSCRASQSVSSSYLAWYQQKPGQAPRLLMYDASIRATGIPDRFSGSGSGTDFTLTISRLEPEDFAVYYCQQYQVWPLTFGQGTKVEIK : 3.38e+06 M⁻¹ s⁻¹
